System: 282377-053-R-J1-PDC complex spheroids, viability
PROTOCOL SUMMARY: Anticancer human tumor 282377-053-R-J1-PDC patient-derived colon adenocarcinoma cell line growth inhibition [GQUAD]
SETUP CONDITIONS: second compound 0.0316 µM; first compound 0.0316 µM; stronger effect = lower value
ASSAY ENDPOINT: viability, T/C (%)
The reply should contain only the number, in %.

*Q* Endpoint output: viability, T/C of Nc1ccn(C2OC(CO)C(O)C2(F)F)c(=O)n1 (stereo not drawn) + Cc1cnc(CNC(=O)c2c(=O)c3ccc(N4CCCN(C)CC4)nc3n3c2sc2ccccc23)cn1 . Value?
*A* 98.5

*Q* Endpoint output: viability, T/C of O=C(NO)c1cnc(N2CCN(S(=O)(=O)c3ccc4ccccc4c3)CC2)nc1 + Cc1[nH]c2ccc(F)cc2c1-c1nc2c3cccnc3c3ncccc3c2[nH]1 . Value?
*A* 78

*Q* Endpoint output: viability, T/C of CC(C)(O)C1CCC(Nc2ccc3ncc(-c4cccc(C(F)(F)F)c4)n3n2)CC1 (stereo not drawn) + CN(C)c1ccc(Nc2c3ccc(NC(=O)CCN4CCCC4)cc3nc3cc(NC(=O)CCN4CCCC4)ccc23)cc1 . Value?
*A* 121

----------
Test system: 282377-053-R-J1-PDC complex spheroids, viability
PROTOCOL SUMMARY: Anticancer human tumor 282377-053-R-J1-PDC cell line growth inhibition [GQUAD];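 note: spheroids exposed to compounds for 7 days before readout; percent of vehicle DMSO control viability with 100% = untreated-like growth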
SETUP CONDITIONS: second compound 0.0316 µM; first compound 0.00999 µM; stronger effect = lower value
Answer each item with its documented viability, T/C.
The reply should contain only the number, in %.

*Q* Endpoint output: viability, T/C of CCc1c2c(nc3ccc(O)cc13)-c1cc3c(c(=O)n1C2)COC(=O)[C@]3(O)CC + Cc1cnc(CNC(=O)c2c(=O)c3ccc(N4CCCN(C)CC4)nc3n3c2sc2ccccc23)cn1 . Value?
*A* 57.4

*Q* Endpoint output: viability, T/C of Cn1ncnc1[C@H]1c2n[nH]c(=O)c3cc(F)cc(c23)N[C@@H]1c1ccc(F)cc1 + Cc1[nH]c2ccc(F)cc2c1-c1nc2c3cccnc3c3ncccc3c2[nH]1 . Value?
*A* 96.7

*Q* Endpoint output: viability, T/C of Cc1[nH]c2ccccc2c1CCNCc1ccc(/C=C/C(=O)NO)cc1 + CN(C)c1ccc(Nc2c3ccc(NC(=O)CCN4CCCC4)cc3nc3cc(NC(=O)CCN4CCCC4)ccc23)cc1 . Value?
*A* 109

*Q* Endpoint output: viability, T/C of CCc1c2c(nc3ccc(O)cc13)-c1cc3c(c(=O)n1C2)COC(=O)[C@]3(O)CC + CN(C)c1ccc(Nc2c3ccc(NC(=O)CCN4CCCC4)cc3nc3cc(NC(=O)CCN4CCCC4)ccc23)cc1 . Value?
*A* 85.5

*Q* Endpoint output: viability, T/C of CC[C@@]1(O)C(=O)OCc2c1cc1n(c2=O)Cc2cc3c(CN(C)C)c(O)ccc3nc2-1 + Cc1[nH]c2ccc(F)cc2c1-c1nc2c3cccnc3c3ncccc3c2[nH]1 . Value?
*A* 116

*Q* Endpoint output: viability, T/C of Cc1[nH]c2ccccc2c1CCNCc1ccc(/C=C/C(=O)NO)cc1 + Cc1cnc(CNC(=O)c2c(=O)c3ccc(N4CCCN(C)CC4)nc3n3c2sc2ccccc23)cn1 . Value?
*A* 129

*Q* Endpoint output: viability, T/C of CC[C@@]1(O)C(=O)OCc2c1cc1n(c2=O)Cc2cc3c(CN(C)C)c(O)ccc3nc2-1 + Cc1cnc(CNC(=O)c2c(=O)c3ccc(N4CCCN(C)CC4)nc3n3c2sc2ccccc23)cn1 . Value?
*A* 125

*Q* Endpoint output: viability, T/C of Cn1ncnc1[C@H]1c2n[nH]c(=O)c3cc(F)cc(c23)N[C@@H]1c1ccc(F)cc1 + CN(C)c1ccc(Nc2c3ccc(NC(=O)CCN4CCCC4)cc3nc3cc(NC(=O)CCN4CCCC4)ccc23)cc1 . Value?
*A* 101

*Q* Endpoint output: viability, T/C of Cn1ncnc1[C@H]1c2n[nH]c(=O)c3cc(F)cc(c23)N[C@@H]1c1ccc(F)cc1 + Cc1cnc(CNC(=O)c2c(=O)c3ccc(N4CCCN(C)CC4)nc3n3c2sc2ccccc23)cn1 . Value?
*A* 104

*Q* Endpoint output: viability, T/C of CCc1c2c(nc3ccc(O)cc13)-c1cc3c(c(=O)n1C2)COC(=O)[C@]3(O)CC + Cc1[nH]c2ccc(F)cc2c1-c1nc2c3cccnc3c3ncccc3c2[nH]1 . Value?
*A* 65.6

*Q* Endpoint output: viability, T/C of CC[C@@]1(O)C(=O)OCc2c1cc1n(c2=O)Cc2cc3c(CN(C)C)c(O)ccc3nc2-1 + CN(C)c1ccc(Nc2c3ccc(NC(=O)CCN4CCCC4)cc3nc3cc(NC(=O)CCN4CCCC4)ccc23)cc1 . Value?
*A* 103

*Q* Endpoint output: viability, T/C of Cc1[nH]c2ccccc2c1CCNCc1ccc(/C=C/C(=O)NO)cc1 + Cc1[nH]c2ccc(F)cc2c1-c1nc2c3cccnc3c3ncccc3c2[nH]1 . Value?
*A* 105
